Assay: Probe fluorescence ratio response to arachidonic acid relative to ADIFAB2
Assay type: binding
Details: arachidonic acid; response relative to ADIFAB2
Description: In an alternate preferred embodiment, the protein is rI-FABP that has Ala substituted for Leu at position 72 (rI-FABP-L72A) with the resulting probe named ADIFAB2. […] ADIFAB2 also has an altered spectral response, making it especially useful for measurements of FFAu in blood samples (Apple et al, Clinical Proteomics, (2004) 1:41-44, U.S. patent application Ser. No. 10/670,958). […] The baseline value for this ratio, measured in the absence of analyte, is designated R0. […]
This listing pairs molecules with measured DR/DR AA.
attribute-measured: DR/DR AA

molecule: 14L, 72A (protein, listed as Rattus norvegicus, PEPTIDE (1)...(131) wild-type rat intestinal fatty acid binding protein) AFDGTWKVDRNENLEKFMEKMGINVVKRKLGAHDNLKLTITQEGNKFTVKESSNFRNIDVVFELGVDFAYSAADGTELTGTWTMEGNKLVGKFKRVDNGKELIAVREISGNELIQTYTYEGVEAKRIFKKE
attribute-measured: DR/DR AA
value-measured: 0.89
--
molecule: 117P, 72A (protein, listed as Rattus norvegicus, PEPTIDE (1)...(131) wild-type rat intestinal fatty acid binding protein) AFDGTWKVDRNENYEKFMEKMGINVVKRKLGAHDNLKLTITQEGNKFTVKESSNFRNIDVVFELGVDFAYSAADGTELTGTWTMEGNKLVGKFKRVDNGKELIAVREISGNELIQTPTYEGVEAKRIFKKE
attribute-measured: DR/DR AA
value-measured: 0.80
--
molecule: 115P1, 72A (protein, listed as Rattus norvegicus, PEPTIDE (1)...(131) wild-type rat intestinal fatty acid binding protein) AFDGTWKVDRNENYEKFMEKMGINVVKRKLGAHDNLKLTITQEGNKFTVKESSNFRNIDVVFELGVDFAYSAADGTELTGTWTMEGNKLVGKFKRVDNGKELIAVREISGNELIPTYTYEGVEAKRIFKKE
attribute-measured: DR/DR AA
value-measured: −0.17

Where these numbers come from: patent US20060257938A1
